# systemTested: human SGLT1 (Homo sapiens, UniProt P13866)
# Construct: Full-length human SGLT1 cDNA on pDream2.1 expression vector; host or cells: COS-7 cells (American Type Culture Collection)
# testProtocol: Methyl-α-D-[U-14C]glucopyranoside uptake assay in COS-7 cells expressing human SGLT1
# Assay type: cell-based
# studyConditions: incubation with 25% human serum (symbols in parentheses); 2 h incubation
measuredEndpoint: IC50

Sample records with IC50:
query: // IC50 lookup, key: `OC[C@H]1O[C@@H](c2ccc(Cl)c(Cc3ccc(CCOC(F)F)cc3)c2)[C@H](O)[C@@H](O)[C@@H]1O`
result: > 10 µM

query: # iterate: `OC[C@H]1O[C@@H](c2ccc(Cl)c(Cc3ccc(OCCOC4CC4)cc3)c2)[C@H](O)[C@@H](O)[C@@H]1O`
result: 1 to 10 µM

query: # iterate: `CC1(OCCOc2ccc(Cc3cc([C@@H]4O[C@H](CO)[C@@H](O)[C@H](O)[C@H]4O)ccc3Cl)cc2)CC1`
result: > 10 µM

Further cases:
query: // IC50 lookup, key: CC(COc1ccc(Cc2cc([C@@H]3O[C@H](CO)[C@@H](O)[C@H](O)[C@H]3O)ccc2Cl)cc1)OC1CC1 (stereo partly shown)
result: 1 to 10 µM

----------
Answer each item with its documented pIC50.
# systemTested: human SGLT1 (Homo sapiens, UniProt P13866)
# Construct: Full-length human SGLT1 cDNA on pDream2.1 expression vector; host or cells: COS-7 cells (American Type Culture Collection)
# testProtocol: Methyl-α-D-[U-14C]glucopyranoside uptake assay in COS-7 cells expressing human SGLT1
# Assay type: cell-based
# studyConditions: incubation with 25% human serum (symbols in parentheses); 2 h incubation
pIC50: −log10 of the molar value.

Sample records with pIC50:
query: Query for human SGLT1 (Homo sapiens, UniProt P13866): what pIC50 does the record show for `OC[C@H]1O[C@@H](c2ccc(Cl)c(Cc3ccc(OCCOC4CCC4)cc3)c2)[C@H](O)[C@@H](O)[C@@H]1O` ?
result: < 5.00

query: # iterate: `C=CCOCCOc1ccc(Cc2cc([C@@H]3O[C@H](CO)[C@@H](O)[C@H](O)[C@H]3O)ccc2Cl)cc1`
result: 5.00 to 6.00

query: # iterate: `OCC#CCOc1ccc(Cc2cc([C@@H]3O[C@H](CO)[C@@H](O)[C@H](O)[C@H]3O)ccc2Cl)cc1`
result: 5.00 to 6.00

Please find the next molecule below.
query: Query for human SGLT1 (Homo sapiens, UniProt P13866): what pIC50 does the record show for `C#CCOCCOc1ccc(Cc2cc([C@@H]3O[C@H](CO)[C@@H](O)[C@H](O)[C@H]3O)ccc2Cl)cc1` ?
result: 5.00 to 6.00

----------
# systemTested: human SGLT1 (Homo sapiens)
# Construct: Full-length human SGLT1 cDNA on pDream2.1 expression vector; host or cells: COS-7 cells (American Type Culture Collection)
# Sequence (P13866 1-664): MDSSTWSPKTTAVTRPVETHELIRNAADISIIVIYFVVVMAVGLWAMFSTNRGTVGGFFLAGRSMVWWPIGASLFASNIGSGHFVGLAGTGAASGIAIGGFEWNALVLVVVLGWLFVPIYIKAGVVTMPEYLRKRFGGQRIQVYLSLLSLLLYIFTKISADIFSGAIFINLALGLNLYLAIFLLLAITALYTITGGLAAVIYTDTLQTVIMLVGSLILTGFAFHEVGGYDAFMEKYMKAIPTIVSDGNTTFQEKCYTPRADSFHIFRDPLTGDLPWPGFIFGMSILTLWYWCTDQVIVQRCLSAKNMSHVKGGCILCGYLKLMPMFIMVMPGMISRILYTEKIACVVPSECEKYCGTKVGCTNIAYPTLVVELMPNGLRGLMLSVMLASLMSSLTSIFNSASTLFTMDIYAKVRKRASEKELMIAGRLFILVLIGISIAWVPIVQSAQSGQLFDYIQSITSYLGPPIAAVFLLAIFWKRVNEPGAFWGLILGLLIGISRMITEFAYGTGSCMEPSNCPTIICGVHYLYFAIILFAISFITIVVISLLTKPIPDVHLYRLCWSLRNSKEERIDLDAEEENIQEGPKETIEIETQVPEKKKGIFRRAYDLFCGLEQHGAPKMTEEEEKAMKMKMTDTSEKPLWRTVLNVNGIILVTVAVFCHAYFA
# testProtocol: Methyl-α-D-[U-14C]glucopyranoside uptake assay in COS-7 cells expressing human SGLT1
# Type: cell-based
# studyConditions: incubation with 25% human serum (symbols in parentheses); 2 h incubation
Answer each item with its documented IC50.

Sample records with IC50:
query: // IC50 lookup, key: `OC[C@H]1O[C@@H](c2ccc(Cl)c(Cc3ccc(OC/C=C/C4CC4)cc3)c2)[C@H](O)[C@@H](O)[C@@H]1O`
result: > 10 µM

query: # iterate: `OC[C@H]1O[C@@H](c2ccc(Cl)c(Cc3ccc(CCOC4CC4)cc3)c2)[C@H](O)[C@@H](O)[C@@H]1O`
result: > 10 µM

query: # iterate: OC[C@H]1O[C@@H](c2ccc(Cl)c(Cc3ccc(OCCOC4C=CCCC4)cc3)c2)[C@H](O)[C@@H](O)[C@@H]1O (stereo partly drawn)
result: > 10 µM

query: # iterate: `OC[C@H]1O[C@@H](c2ccc(Cl)c(Cc3ccc(OCCOCC(F)(F)F)cc3)c2)[C@H](O)[C@@H](O)[C@@H]1O`
result: 1 to 10 µM

query: # iterate: `OC[C@H]1O[C@@H](c2ccc(Cl)c(Cc3ccc(OCCO[C@H]4CCOC4)cc3)c2)[C@H](O)[C@@H](O)[C@@H]1O`
result: 1 to 10 µM

Further cases:
query: // IC50 lookup, key: `OC[C@H]1O[C@@H](c2ccc(Cl)c(Cc3ccc(OCCOC4CCCC4)cc3)c2)[C@H](O)[C@@H](O)[C@@H]1O`
result: 1 to 10 µM
